# TARGET_OR_TEST_SYSTEM: ENL YEATS domain (AviSUMO-ENL YEATS) (Homo sapiens, UniProt Q03111)
# Construct: encoding ENL YEATS (aa 1−148) was cloned in pET28a-; made in house; host or cells: E. coli BL21(DE3pLysS), co-expressed with BirA (pBirAcm)
# Sequence (Q03111 1-148): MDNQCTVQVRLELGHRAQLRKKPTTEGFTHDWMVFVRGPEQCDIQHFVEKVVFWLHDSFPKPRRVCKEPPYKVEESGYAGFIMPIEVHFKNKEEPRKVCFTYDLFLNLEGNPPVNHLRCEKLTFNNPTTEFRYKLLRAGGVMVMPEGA
# ASSAY_COMMENT: Phage panning of BuK-containing 7-mer library against AviSUMO-ENL YEATS with Illumina NGS abundance
# PARTICULARS: sheet ENLR3: round 3 of selection against ENL YEATS; TAG = amber codon (BuK)
Listed here: items and their measured n (number of NGS reads of the 7-mer sequence V1-V7).
RESULT_TYPE: n (number of NGS reads of the 7-mer sequence V1-V7)

INSERT INTO results (substance, experimental_value) VALUES
  ('RWVAGPTAG', 1),
  ('SAVVATAGG', 1),
  ('WWFIETAGG', 1),
  ('YRWVFSF', 1),
  ('QTAGERNAC', 1),
  ('SMMTAGSST', 1),
  ('QCGPRTAGE', 1),
  ('WWIIATAGG', 1),
  ('RLTLFTAGG', 1),
  ('YVCPWTAGG', 1),
  ('TAGSSIITC', 1),
  ('YLYVTAGAC', 1),
  ('WLAWRHL', 1),
  ('YDVYCSTAG', 1),
  ('YLYTAGVPF', 1),
  ('QCGPRTAGG', 1),
  ('TAGSFLYSF', 1),
  ('YLYTAGVHC', 1),
  ('QCGPWTAGG', 1),
  ('NTAGNIGLY', 1),
  ('YDVYCYE', 1),
  ('SLYITFTAG', 1),
  ('YVGPLTAGG', 1),
  ('SSGTAGKCV', 1),
  ('WWVLVTAGS', 1),
  ('YAVYCYTAG', 1),
  ('WWILETAGG', 1),
  ('QCGPRTAGV', 1),
  ('YLYLVPC', 1),
  ('TAGSGVASC', 1),
  ('TAGGSWVPI', 1),
  ('VWVSTAGMT', 1),
  ('YLTLFTAGG', 1),
  ('TAGKDQLWN', 1),
  ('TAGTYYVCR', 1),
  ('VATAGMWPC', 1),
  ('NTITAGISL', 1),
  ('TAGMVHIMV', 1),
  ('WWIFETAGG', 1),
  ('YDVYCYK', 1),
  ('TAGAFFCIL', 1),
  ('RTAGTESQL', 1),
  ('YDGYCYTAG', 1),
  ('NLTLFTAGG', 1),
  ('YLDDTAGLH', 1),
  ('WFIYTAGGC', 1),
  ('WCFMVFL', 1);

---

# TARGET_OR_TEST_SYSTEM: ENL YEATS domain (AviSUMO-ENL YEATS) (Homo sapiens)
# Construct: encoding ENL YEATS (aa 1−148) was cloned in pET28a-; made in house; host or cells: E. coli BL21(DE3pLysS), co-expressed with BirA (pBirAcm)
# Sequence (Q03111 1-148): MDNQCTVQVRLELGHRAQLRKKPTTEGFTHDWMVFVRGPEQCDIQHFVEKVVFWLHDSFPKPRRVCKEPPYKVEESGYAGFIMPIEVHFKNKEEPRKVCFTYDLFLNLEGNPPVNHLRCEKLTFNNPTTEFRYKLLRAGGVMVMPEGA
# ASSAY_COMMENT: Phage panning of BuK-containing 7-mer library against AviSUMO-ENL YEATS with Illumina NGS abundance
# PARTICULARS: sheet ENLR3: round 3 of panning against ENL YEATS; TAG = amber codon (BuK); 7-mer library positions V1-V7
# Description: We utilized a previously established amber-obligate 7-mer phage display library to develop a phage display library enriched with BuK-containing 7-mer peptides. […] Furthermore, the comprehensive raw NGS data for the amber-obligate 7-mer phage library can be found in the NCBI’s Sequence Read Archive, under the accession ID PRJNA606283. […]
// classify: if (n (number of NGS reads of the unique amino acid sequence) < 6) met else not met

INSERT INTO assay_data (substance, answer_label) VALUES
  ('YLYTAGVPC', 'not met'),
  ('HHVLFTAGG', 'met'),
  ('DMFRSTAGI', 'met'),
  ('CYVCRFL', 'met'),
  ('TAGTLWNVG', 'met'),
  ('IHVYCTAGV', 'met'),
  ('IMCYPFTAG', 'not met'),
  ('YDVYSYTAG', 'met'),
  ('QCGPRTAGD', 'not met'),
  ('HAIYCYTAG', 'not met'),
  ('WRIIETAGG', 'not met'),
  ('HYVLFTAGW', 'met'),
  ('QCGPLTAGD', 'not met');

Reference source: paper PMC11046469
